Entry source: the supplement of paper PMC13380429

Listed here are compounds together with their documented SARS-CoV-2 infection rate.
# Test system: Vero E6 infected with SARS-CoV-2
# procedure-text: SARS-CoV-2 infection rate relative to infected DMSO; higher = more infection, active = 60 or less
# measurement-setup: 24 h
measured-endpoint: SARS-CoV-2 infection rate (%)

>>> val("CC(=O)Nc1ccc(C(=O)NC(C)(C)C)cc1 (10 µM)")
106
>>> val("Cc1cn([C@@H]2C[C@@H](O)[C@H](CO)O2)c(=O)[nH]c1=O [telbivudine] (10 µM)")
118
>>> val("CCCCCOC(=O)Nc1nc(=O)n([C@@H]2O[C@H](C)[C@@H](O)[C@H]2O)cc1F [capecitabine] (10 µM)")
114
>>> val("CCOC1O[C@H]([C@@H](COCc2ccccc2)OCc2ccccc2)[C@H](OCc2ccccc2)[C@H]1O (some centres undefined) [tribenoside] (10 µM)")
102
>>> val("NC(=O)N/N=C/c1ccc(Oc2ccc(F)cc2)cc1 (10 µM)")
112
>>> val("CC(CN1c2ccccc2Sc2ccccc21)N(C)C (centres undefined) [promethazine] (10 µM)")
67.5
>>> val("O=c1cc(-c2ccc(O)c(O)c2)oc2cc(O)cc(O)c12 [luteolin] (10 µM)")
110
>>> val("O=C(O)c1c(Sc2ccccc2)c2cc(Cl)ccc2n1Cc1ccc(Cl)cc1 (10 µM)")
102
>>> val("CCCC(C)C1(CC)C(=O)NC(=O)NC1=O (centres undefined) [pentobarbital] (10 µM)")
100

###

Item-by-item account of inhibition of SARS-CoV-2 cytopathic effect
# Tested on: Vero E6 infected with SARS-CoV-2
# procedure-text: inhibition of SARS-CoV-2 cytopathic effect; higher = more antiviral protection, active = above 15
# measurement-setup: 1 nM; 48 h
measured-endpoint: inhibition of SARS-CoV-2 cytopathic effect (%)

>>> val("CC/C(=C(/CC)c1ccc(O)cc1)c1ccc(O)cc1")
-1.15
>>> val("COc1cc(/C=C/C(=O)N2CCN(CC(=O)N3CCCC3)CC2)cc(OC)c1OC [cinepazide]")
5.93
>>> val("Nc1ncnc2c1ncn2[C@@H]1O[C@H](CO)[C@@H](O)[C@H]1O")
2.02
>>> val("CC(C)c1cc(-c2n[nH]c(=O)n2-c2ccc3c(ccn3C)c2)c(O)cc1O")
-2.33
>>> val("CC(=O)N(CC(O)CN(C(C)=O)c1c(I)c(C(=O)NCC(O)CO)c(I)c(C(=O)NCC(O)CO)c1I)c1c(I)c(C(=O)NCC(O)CO)c(I)c(C(=O)NCC(O)CO)c1I (stereo not given)")
-1.14
>>> val("CN1CCC(COc2cnc(-c3cccc(Cn4nc(-c5cccc(C#N)c5)ccc4=O)c3)nc2)CC1")
1
>>> val("O=C(Cn1c(=O)sc2ccc(Cl)cc21)N1CCN(CCO)CC1 [tiaramide]")
-2.08
>>> val("O=C(/C=C/c1ccc(O)c(O)c1)c1ccc(O)cc1O")
-0.13
>>> val("Cc1ccc(C(=O)c2cc(O)c(O)c([N+](=O)[O-])c2)cc1")
-5.06
>>> val("O=C(Nc1cc(C(F)(F)F)ccc1O)Nc1cc(C(F)(F)F)ccc1O")
-2.23
>>> val("CC(C(=O)O)c1ccc(C(=O)c2cccs2)cc1 (stereo not given)")
2.14
>>> val("CNC(=O)c1ccc(-c2cnc3ncc(Cc4ccc5ncccc5c4)n3n2)cc1F")
0.17
>>> val("CC[C@H]1[C@@H](O)[C@@H]2[C@H](CC[C@]3(C)[C@@H]([C@H](C)CCC(=O)O)CC[C@@H]23)[C@@]2(C)CC[C@@H](O)C[C@@H]12")
0.365
>>> val("NC(=O)c1ccc2[nH]ccc2c1")
-2.02
>>> val("O=C1NC(=O)c2cc(Nc3ccccc3)c(Nc3ccccc3)cc21")
-1.24
>>> val("COc1ccccc1Oc1c(NS(=O)(=O)c2ccc(C(C)(C)C)cc2)nc(-c2ncccn2)nc1OCCO")
-0.62
>>> val("CO[C@@]1(NC(=O)C(C(=O)O)c2ccc(O)cc2)C(=O)N2C(C(=O)O)=C(CSc3nnnn3C)CO[C@@H]21 (stereo not given in full)")
1.45
>>> val("CC(C)CNc1nc(-c2cccc3ncccc23)cn2c(-c3ccc(C(=O)NC4CC4)cc3)cnc12")
-3.61
>>> val("Cc1cn(-c2cc(NC(=O)c3ccc(C)c(Nc4nccc(-c5cccnc5)n4)c3)cc(C(F)(F)F)c2)cn1")
3.96
>>> val("CC(=O)[C@@]1(O)CC[C@H]2[C@@H]3C=C(Cl)C4=CC(=O)[C@@H]5C[C@@H]5[C@]4(C)[C@H]3CC[C@@]21C")
-4.45
>>> val("Clc1ccc(C(Cn2ccnc2)OCc2csc3c(Cl)cccc23)c(Cl)c1 (stereo not given)")
0.24
>>> val("O=C(CN1CCNCC1)NC1CCCCC1")
-1.96
>>> val("CCN(CC)C(=O)c1ccc(C2=CC3(CCNCC3)Oc3cccc(O)c32)cc1")
-0.93
>>> val("C[CH2][Hg][S]c1ccccc1C(=O)[O-].[Na+]")
0.94
>>> val("COc1cccc(-c2cc(F)ccc2[C@H]2Cc3nc(N)nc(C)c3C(=O)N2)n1")
-0.35
>>> val("CCC(=O)O[C@@H](O[P@@](=O)(CCCCc1ccccc1)CC(=O)N1C[C@H](C2CCCCC2)C[C@H]1C(=O)O)C(C)C")
-0.77
>>> val("CCC(CC)(NC(=O)C(C)C)C(=O)N[C@@H](CCCNC(=N)N)C(=O)NC1(C(=O)NC(c2ccc(F)cc2)c2ccc(F)cc2)CCCC1")
-0.92
>>> val("O=C(NCNC(=O)NC1C(=O)NC(=O)N1CO)NC1C(=O)NC(=O)N1CO (stereo not given)")
-0.15
>>> val("CCCCCCCCCCC(O)C1C=CC2C(=O)N(c3ccccc3)C(=O)C2N1Nc1ccc([N+](=O)[O-])cc1 (stereo not given)")
0.91
>>> val("CS(=O)(=O)Nc1c(O)ccc2c1CCC[C@H]2C1=NCCN1")
1.13
>>> val("COc1ccc(CNC(=O)c2cc(-c3cncc(C)c3)ncc2-c2nccs2)nc1OC")
1.93
>>> val("Cc1cc2nc3c(=O)[nH]c(=O)nc-3n(C[C@H](O)[C@H](O)[C@H](O)CO)c2cc1C")
-3.6
>>> val("Cc1ccc2c(c1)=C(c1ccccc1)C(C1=NN(C(=O)CCC(=O)O)C(c3ccc(Br)cc3)C1)C(=O)N=2 (stereo not given)")
-0.42
>>> val("CN(C)C(=S)SC(=S)N(C)C [tetramethylthiuram-monosulfide]")
-5.07
>>> val("Cc1cc2c(N3CCCC3)nc(N3CCCC3)nc2n1C")
1.39

###

# System: Vero E6 infected with SARS-CoV-2
# procedure-text: inhibition of SARS-CoV-2 cytopathic effect; higher = more antiviral protection, active = above 15
# measurement-setup: 100 nM; 48 h
measured-endpoint: inhibition of SARS-CoV-2 cytopathic effect (%)

>>> val("COC(=O)c1cc(OC)c2c(c1-c1c(C(=O)OC)cc(OC)c3c1OCO3)OCO2 [bifendate]")
3.5
>>> val("CC(=O)c1ccc(NS(C)(=O)=O)c(Oc2ccc(F)cc2F)c1")
0.56
>>> val("CC(CNS(=O)(=O)C(C)C)c1ccc(-c2ccc(C#N)cc2)cc1 (stereo not given)")
0.68
>>> val("CN(C(=O)CN(CCO)CC(=O)N(C)C(C)(C)Cc1ccccc1)C(C)(C)Cc1ccccc1")
0.87
>>> val("CNCCC=C1c2ccccc2C=Cc2ccccc21")
-2.37

###

# System: Vero E6 infected with SARS-CoV-2
# procedure-text: inhibition of SARS-CoV-2 cytopathic effect; higher = more antiviral protection, active = above 15
# measurement-setup: 100 nM; 48 h
measured-endpoint: inhibition of SARS-CoV-2 cytopathic effect (%)

>>> val("Oc1ccc2ccccc2c1Cc1c(O)ccc2ccccc12")
2.9
>>> val("NC(=O)N1CCC(CC(=O)N2CCC([C@H]3c4ncc(Br)cc4CCc4cc(Cl)cc(Br)c43)CC2)CC1")
1.55
>>> val("C[C@]12CC[C@@H]3c4ccc(OS(=O)(=O)O)cc4CC[C@H]3[C@@H]1CCC2=O [estropipate]")
0.66
>>> val("C[N+](C)(C)CC(O)CC(=O)[O-] (configuration not stated)")
0.43
>>> val("O=C1c2c(O)ccc(O)c2C(=O)c2c(NCCNCCO)ccc(NCCNCCO)c21")
-2.74
>>> val("O=C(Cc1ccccc1)Nc1nc2ccc(Cl)cc2c2nc(-c3ccco3)nn12")
3.84
>>> val("Cc1ncc(-c2csc(N=C(N)N)n2)[nH]1")
-3.06
>>> val("COC(=O)N[C@H](C(=O)N1CCC[C@H]1C(=O)Nc1ccc([C@@H]2CC[C@@H](c3ccc(NC(=O)[C@@H]4CCCN4C(=O)[C@@H](NC(=O)OC)C(C)C)cc3)N2c2ccc(C(C)(C)C)cc2)cc1)C(C)C")
-0.7
>>> val("O=C(O)[C@H](Cc1c[nH]c2ccccc12)N1C(=O)c2ccccc2C1=O")
-0.51
>>> val("Cn1cc(/C=C2\\C(=O)Nc3cccnc32)c2ccccc21")
2.94
>>> val("C[C@]1(COc2ccc(N3CCC(Oc4ccc(OC(F)(F)F)cc4)CC3)cc2)Cn2cc([N+](=O)[O-])nc2O1")
-1.12
>>> val("COc1cc2c(cc1OC)[C@@H](Cc1cc(OC)c(OC)c(OC)c1)[N+](C)(CCCOC(=O)CC/C=C/CCC(=O)OCCC[N+]1(C)CCc3cc(OC)c(OC)cc3[C@H]1Cc1cc(OC)c(OC)c(OC)c1)CC2 (some centres not stated)")
2.74
>>> val("OC[C@H]1O[C@@H](n2cnc3c(NC4CCCC4)ncnc32)[C@H](O)[C@@H]1O")
1.63
>>> val("OCCN1CCN(CC/C=C2/c3ccccc3Sc3ccc(C(F)(F)F)cc32)CC1")
-2.01
>>> val("CC1=C(/C=C/C(C)=C/C=C/C(C)=C/C=O)C(C)(C)CCC1")
3.22
>>> val("CN1C(=O)CN=C(c2ccccc2)c2cc(Cl)ccc21")
1.99
>>> val("NC(=O)N1c2ccccc2CC(O)c2ccccc21 (configuration not stated) [licarbazepine]")
-0.88
